All values here come from PubChem BioAssay.

Test: IOSE-T80 ovarian epithelial cell cytotoxicity, dose response, cytotoxicity control for PAX8 inhibitor project, plate reader, dry powder samples (AID 743045);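 note: more negative values mean more cell killing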
Conditions: IOSE-T80 ovarian epithelial cells; series mostly up to 35 µM
Measured potencies and affinities stand elsewhere. Active and inactive are the calls of the source. The rule behind the calls is not given here.

entry_smiles: C[C@@H]1CCCCO[C@H](CN(C)Cc2ccncc2)[C@H](C)CN([C@@H](C)CO)C(=O)c2cc(NC(=O)Nc3ccc(C(F)(F)F)cc3)ccc2O1
activity change, negative = cytotoxicity: inactive

entry_smiles: COc1ccc(S(=O)(=O)Nc2ccc3c(c2)CC(=O)N([C@@H](C)CO)C[C@@H](C)[C@H](CN(C)Cc2ccc(-c4ccccc4)cc2)O3)cc1
activity change, negative = cytotoxicity: inactive

entry_smiles: C[C@@H]1CN([C@@H](C)CO)S(=O)(=O)c2ccc(C#Cc3ccncc3)cc2O[C@@H]1CN(C)C(=O)C1CCCCC1
activity change, negative = cytotoxicity: inactive
